assay: in vivo; conditions: female, NMRI, mouse, ip, 3 mg/kg
assayMetric: Tmax (min)

1. Cc1ccc(-n2nc3c(=O)n(CCCC(=O)NCC(C)c4ccccc4)nc(C)c3c2C)cc1 (stereo not shown) = 4.8

###

test: in vivo; details: female, NMRI, mouse, iv, 3 mg/kg
assayMetric: C0 (ng/mL)

1) Cc1ccc(-n2nc3c(=O)n(CCCC(=O)NCC(C)c4ccccc4)nc(C)c3c2C)cc1 (stereo not shown) = 3380

###

pKd: recorded values
target: PDEδ (Homo sapiens); test: competitive fluorescence polarization displacement assay; assay type: binding
pKd: −log10 of the molar value.
assayMetric: pKd

1) Cc1nn(CCCC(=O)NCCc2ccccc2)c(=O)c2nn(-c3ccccc3)c(C)c12 = 7.54
2) Cc1ccc(-n2nc3c(=O)n(CCCC(=O)NCc4ccco4)nc(C)c3c2C)cc1 = 7.30
3) Cc1ccc(-n2nc3c(=O)n(CCCC(=O)NCc4ccccc4)nc(C)c3c2C)cc1 = 7.77
4) Cc1ccc(-n2nc3c(=O)n(CCCC(=O)NCCc4ccccc4)nc(C)c3c2C)cc1 = 8.22
5) Cc1nn(CCCC(=O)NCc2ccco2)c(=O)c2nn(-c3ccccc3)c(C)c12 = 6.87

###

test: in vivo; conditions: female, NMRI, mouse, iv, 3 mg/kg, AUC 0-inf
assayMetric: AUC(0-inf) (ng·h/mL)

1) Cc1ccc(-n2nc3c(=O)n(CCCC(=O)NCC(C)c4ccccc4)nc(C)c3c2C)cc1 (stereo not shown) = 1620

###

assay: in vivo; settings: female, NMRI, mouse, iv, 3 mg/kg, AUC 0-t
assayMetric: AUC(0-t) (ng·h/mL)

1. Cc1ccc(-n2nc3c(=O)n(CCCC(=O)NCC(C)c4ccccc4)nc(C)c3c2C)cc1 (stereo not shown) = 1620

###

test: in vivo; settings: female, NMRI, mouse, iv, 3 mg/kg
assayMetric: clearance (mL/min/kg)

1) Cc1ccc(-n2nc3c(=O)n(CCCC(=O)NCC(C)c4ccccc4)nc(C)c3c2C)cc1 (stereo not shown) [2k] = 30.8
